- System tested: T1, biotin-labeled CD47 extracellular domain protein (CD47-ECD) (UniProt Q08722 19-139, limits assumed, biotin-labeled (sites not given))
- T1 construct: extracellular domain; also called CD47 protein
- T1 sequence (Q08722 19-139 limits assumed): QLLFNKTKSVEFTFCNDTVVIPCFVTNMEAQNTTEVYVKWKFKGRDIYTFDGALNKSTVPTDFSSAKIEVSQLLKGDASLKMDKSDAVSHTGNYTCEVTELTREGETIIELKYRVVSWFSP
- Protocol notes: blocking ELISA, biotin-CD47-ECD on coated SIRPα-hFc; Ab 0.32 nM
Measurement label: OD450 nm of CD47 bound to SIRPα

INSERT INTO measurements (binder, measurement_label, reported) VALUES
  ('25E3B5 (antibody, V domains shown, Murine hybridoma antibody purified on protein G) VH: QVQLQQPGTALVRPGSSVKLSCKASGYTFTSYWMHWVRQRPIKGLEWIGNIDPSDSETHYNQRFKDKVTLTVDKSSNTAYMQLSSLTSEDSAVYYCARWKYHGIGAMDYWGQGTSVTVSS VL: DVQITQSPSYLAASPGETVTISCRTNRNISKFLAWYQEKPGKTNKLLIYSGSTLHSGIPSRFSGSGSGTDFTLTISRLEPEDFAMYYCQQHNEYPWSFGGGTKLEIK', 'OD450 nm of CD47 bound to SIRPα', 1.06),
  ('51E2F11 (antibody, V domains shown, Murine hybridoma antibody purified on protein G) VH: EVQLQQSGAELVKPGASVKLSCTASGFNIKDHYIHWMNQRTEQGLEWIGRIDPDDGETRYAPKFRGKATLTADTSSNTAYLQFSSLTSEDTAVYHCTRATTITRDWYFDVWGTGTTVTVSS VL: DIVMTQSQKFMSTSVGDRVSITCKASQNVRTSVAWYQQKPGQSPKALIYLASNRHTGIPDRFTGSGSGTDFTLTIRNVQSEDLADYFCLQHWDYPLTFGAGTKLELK', 'OD450 nm of CD47 bound to SIRPα', 1.57),
  ('54G8G6 (antibody, V domains shown, Murine hybridoma antibody purified on protein G) VH: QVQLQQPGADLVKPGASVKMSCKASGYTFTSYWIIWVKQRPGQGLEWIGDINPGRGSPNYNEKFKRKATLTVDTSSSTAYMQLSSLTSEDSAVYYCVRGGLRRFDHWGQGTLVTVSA VL: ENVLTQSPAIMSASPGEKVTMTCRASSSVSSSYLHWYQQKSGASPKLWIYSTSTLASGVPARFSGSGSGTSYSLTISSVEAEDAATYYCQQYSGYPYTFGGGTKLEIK', 'OD450 nm of CD47 bound to SIRPα', 0.31);
